B1: LCOR (parent)
chain: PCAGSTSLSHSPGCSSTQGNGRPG

# Variants of: B1
# experiment.description: protein stability index of a GFP-peptide fusion (GPS, HEK-293T) (PSI 1-6); higher = more stable;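 further: lentivirally expressed fusions sorted by FACS into six bins by GFP to DsRed ratio, PSI derived from sequencing read proportions per bin multiplied by bin number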
# experimental.setup: c terminus: a fixed tail appended
recorded.metric: protein stability index

INSERT INTO results (var, assay_result) VALUES
  ('S16F', 2.87),
  ('S7A', 2.19),
  ('G21R', 3.29),
  ('Q18N', 3.51),
  ('C2K', 4.48),
  ('R22I', 3.97),
  ('S9D', 4.12),
  ('S16D', 4.05),
  ('T17C', 1.47),
  ('G21F', 1.98),
  ('S15M', 2.95),
  ('T17P', 3.51),
  ('C14E', 4.9),
  ('A3C', 4.78),
  ('S11W', 2.74),
  ('P12Y', 3.39);
